This collection of values is drawn from patent US9688764B2.

Target: T1, hPRLR.mFc (soluble dimeric human PRLR) (Homo sapiens, UniProt P16471)
T1 construct: dimeric (hPRLR.mFc)
T1 sequence (P16471 with tags, fused parts or gaps): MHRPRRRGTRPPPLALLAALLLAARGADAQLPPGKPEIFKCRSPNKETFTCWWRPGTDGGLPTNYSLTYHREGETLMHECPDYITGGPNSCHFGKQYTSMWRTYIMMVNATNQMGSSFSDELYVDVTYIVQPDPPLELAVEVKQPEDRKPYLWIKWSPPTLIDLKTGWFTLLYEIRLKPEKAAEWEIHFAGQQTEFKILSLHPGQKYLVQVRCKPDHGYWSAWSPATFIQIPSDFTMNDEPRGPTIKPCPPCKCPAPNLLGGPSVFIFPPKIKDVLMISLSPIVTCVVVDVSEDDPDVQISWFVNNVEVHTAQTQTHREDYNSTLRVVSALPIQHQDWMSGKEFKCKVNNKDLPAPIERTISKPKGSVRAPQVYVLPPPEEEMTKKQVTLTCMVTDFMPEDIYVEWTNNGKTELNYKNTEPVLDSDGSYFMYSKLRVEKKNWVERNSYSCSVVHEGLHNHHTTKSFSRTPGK
Test: Surface plasmon resonance (Biacore T200), mAb-capture format
Type: binding
Conditions: 25° C., antibody-capture format, analyte hPRLR.mFc
What Kd was measured for each of the following?
Numeric answer plus unit only.

Exercise: Which value of Kd has been reported for H1H6976N: human IgG1 Fc form of H2M6976N; anti-PRLR; HCVR/LCVR SEQ ID NOs 386/394 (antibody, V domains shown, human IgG1 Fc) VH: EVQLLESGGGFVQPGGSLRLSCAASGFTFSSYAMSWVRQAPGKGLEWVSIISSNGRYTYYADSVKGRFTISRDNSKNTLYLQMNSLRAEDTAVYYCATVTGDWFDPWGQGTLVTVSS VL: DIQLTQSPSFLSASVGDRVTITCWASQDIDISLAWYQQKPGKAPKLLIYAASTLQSGVPSKFSGSGSGTDFTLTISSLQPEDFSTYYCQQLNSYPITFGQGTRLDIK in the records?
Solution: 0.0906 nM

Exercise: Request: H1H6790P: anti-PRLR antibody, human IgG1 Fc; HCVR/LCVR SEQ ID NOs 114/122 (antibody, V domains shown, human IgG1 Fc) VH: EVQLVESGGGLVQPGGSLRLSCAASGFTFSSYAMTWVRQAPGKGLEWVSAITGSVGNTYYADSVKGRFTISRDNSKNTLYLQMNSLGAEDTAEYYCAKGAGMTTNWYLDLWGRGTLVTVSS VL: DIVMTQSPDSLAVSLGARATINCKSSQSVLYSSNNQNYLTWYQQKPGQPPKLLIKWASTRESGVPDRFSGSGSGTDFTLTISSLQAEDVAVYYCQQYASSPYTFGQGTKLEIK
Solution: 0.192 nM

Exercise: Now consider H1H6801P: anti-PRLR antibody, human IgG1 Fc; HCVR/LCVR SEQ ID NOs 210/218 (antibody, V domains shown, human IgG1 Fc) VH: QVQLQQSGPGLVKPSQTLSLTCVISGDSVSSNTAWNWVRQSPSRGLEWLGRTYYRSKWYNDYAVSVKSRITINPDTSKNQFSLLMNSVTPEDTAVYYCARVVRGLNYFDYWGQGTLVTVSS VL: DIVMTQSPDSLAVSLGERATINCKSSQSVLYNSNNKNYLAWYQQKPGQPPKLLIYWSSSRESGVPDRFSGSGSGTDFTLTISGLQAEDVAIYYCQQYSTIPYTFGQGTKLEIK .
Solution: 0.161 nM

Exercise: And what about the molecule H1H6792P: anti-PRLR antibody, human IgG1 Fc; HCVR/LCVR SEQ ID NOs 130/138 (antibody, V domains shown, human IgG1 Fc) VH: EVQLVESGGGLVQPGRSLRLSCAASGFTLDDHAVHWVRQAPGKGLEWVSGISWNSVYIDYADSVKGRFTIFRDNAKNSLYLQMNSLRAEDTAFYYCARDIEGARDYWGQGTLVTVSS VL: DIQMTQSPSSLSASVGDRVTITCRASQGIRNDLGWYQQKPGKAPKRLIYAASSLQSGVPSRFSGSGYGTEFTLTISSLQPEDFAPYYCLQHNSYPLTFGGGTKVEIK ?
Solution: 0.313 nM

Exercise: Next entry: H1H6762P: anti-PRLR antibody, human IgG1 Fc; HCVR/LCVR SEQ ID NOs 2/10 (antibody, V domains shown, human IgG1 Fc) VH: QVQLVESGGGVVQPGRSLRLSCAASGFTFSHYGMVWVRQPPGKGLEWVALISFDGTTKYYADSVKGRFTISRDNSKNTLYLQMNSLRAEDTAVYFCVGAIAAAAFDLWGRGTLVTVSS VL: EIVMTQSPATLSVSPGERATLSCRASQSVSSDLAWYQQKPGQAPRLLIYSASARATGIPARFTGSGSGTDFTLTISSLQSEDFAVYYCQQYNNWPMYTFGQGTKLEIK
Solution: 0.0992 nM

Exercise: Input H1H6967N: human IgG1 Fc form of H2M6967N; anti-PRLR; HCVR/LCVR SEQ ID NOs 354/362 (antibody, V domains shown, human IgG1 Fc) VH: EVQLVESGGDLVHPGRSLRLSCAASGFPFDEYAMHWVRQVPGKGLEWVSGISWSNNNIGYADSVKGRFTISRDNAKNSLYLQMNSLRPEDTAFYYCAKSGIFDSWGQGTLVTVSS VL: EIVMTQSPATLSVSPGERATLSCRASQSVSRDLAWYQQKPGQAPRLLIHGASTRATGIPARFSGSGSGAEFTLIISSLQSEDFAVYYCQQYNNWPLTFGGGTKVEIK
Solution: 0.11 nM

Exercise: Note, next up: H1H6804P: anti-PRLR antibody, human IgG1 Fc; HCVR/LCVR SEQ ID NOs 242/250 (antibody, V domains shown, human IgG1 Fc) VH: QVTLKESGPVLVKPTQTLSLTCTVSGFSLSDAGMGVSWIRQPPGKALEWLAHIFSNDGKSYSTSLKSRLTISKDTSKRQVVLTMTNMDPVDTATYYCARIRTGTYSLYLDYWGQGTLVTVSS VL: DIQMTQSPSSLSASVGDRVTITCRASQSINSYLNWYQQKPGKAPKLLLYFASSLQSGVPSRFSGSGSGTDFTLTISSLQPEDFASYYCQESYSTPWTFGQGTKVEIK
Solution: 0.193 nM

Exercise: Please do the same for H1H6765P: anti-PRLR antibody, human IgG1 Fc; HCVR/LCVR SEQ ID NOs 18/26 (antibody, V domains shown, human IgG1 Fc) VH: EVQLVESGGGVVRPGGSLRLSCVGSGFSFDDHGMNWVRQGPGKGLEWVSGFNWNGGSTNYAESVKGRFTISRDNARNSLFLQMNSLRAEDTALYYCVRGRSGWFNDAFDVWGPGTMVTVSS VL: EIVLTQSPGTLSLSPGERATLSCRASQTINSNYLAWYRQKPGQTPRLLIYGTSSRATGIPDRFSGSGSGTDFSLTISRLEPEDFAVFYCQQYAGLPTFGPGTKVDIK as well.
Solution: 0.0392 nM
